System: Staphylococcus sp.
Method Summary: In vitro antibacterial evaluation: minimum inhibitory concentration (MIC), broth dilution method
Assay type: cell-based
Condition Description: strain GC 4549
Excerpt: […]
Measured Attribute: MIC Coagulase Negative Staphylococcus (GC 4549) (µg/mL)

INSERT INTO measurements (compound, test_value) VALUES
  ('CC(c1ccccc1)C1NC(=O)CNC(=O)C(CO)NC(=O)C(C(O)C2CNC(=N)N2C2OC(CO)C(O)C(O)C2O)NC(=O)C(C(O)C2CNC(=N)N2)NC(=O)C(Cc2ccc(OC3OC(CO)C(OC4OC(CO)C(O)C5OC6(CCCCCCCCCCCC6)OC45)C(O)C3O)cc2)NC1=O (stereo not shown) [Example 210a]', 2),
  ('CC(C1CCCCC1)C1NC(=O)CNC(=O)C(CO)NC(=O)C(C(O)C2CNC(=N)N2C2OC(CO)C(O)C(O)C2O)NC(=O)C(C(O)C2CNC(=N)N2)NC(=O)C(Cc2ccc(OC3OC(CO)C(OC4OC5COC6(OC5C(O)C4O)C4CC5CC(C4)CC6C5)C(O)C3O)cc2)NC1=O (stereo not shown)', 1),
  ('N=C1NCC(C(O)C2NC(=O)C(Cc3ccc(OC4OC(CO)C(OC5OC6COC(Cc7ccccc7)OC6C(O)C5O)C(O)C4O)cc3)NC(=O)C(CC3CCCCC3)NC(=O)CNC(=O)C(CO)NC(=O)C(C(O)C3CNC(=N)N3C3OC(CO)C(O)C(O)C3O)NC2=O)N1 (stereo not shown)', 1),
  ('CC(c1ccccc1)C1NC(=O)CNC(=O)C(CO)NC(=O)C(C(O)C2CNC(=N)N2C2OC(CO)C(O)C(O)C2O)NC(=O)C(C(O)C2CNC(=N)N2)NC(=O)C(Cc2ccc(OC3OC(CO)C(OC4OC5COC6(CCSCC6)OC5C(O)C4O)C(O)C3O)cc2)NC1=O (stereo not shown)', 2);

* * *

Tested on: Streptococcus sp.
Method Summary: In vitro antibacterial evaluation: minimum inhibitory concentration (MIC), broth dilution method
Type: cell-based
Condition Description: broth dilution, 18 hours at 35° C.
Numbered stars: 1 amine (or outer) side, 2 acyl side, 3 side chain; on linkers, the order of the positions; unused ones are H or OH. Square brackets hold non-standard residues; d marks the D form. Peptide text beside a SMILES is read from it. ξ: configuration not given here. X6 = N=C1NCC(CC(N[*:1])C(=O)[*:2])N1C1OC(CO)C(O)C(O)C1O; Tyr(3-NO2) = N[CH](Cc1ccc(O)c([N+](=O)[O-])c1)C(=O)O; X7 = N=C1NCC(CC(N[*:1])C(=O)[*:2])N1; ξPhe(βξ-Me) = CC(c1ccccc1)C(N)C(=O)O
Measured Attribute: MIC Streptococcus pyogenes (GC 4563)

INSERT INTO assay_data (compound, measured_attribute, test_value) VALUES
  ('CC(c1ccccc1)C1NC(=O)CNC(=O)C(CO)NC(=O)C(C(O)C2CNC(=N)N2C2OC(CO)C(O)C(O)C2O)NC(=O)C(C(O)C2CNC(=N)N2)NC(=O)C(Cc2ccc3oc(-c4cccc([N+](=O)[O-])c4)nc3c2)NC1=O (stereo not drawn)', 'MIC Streptococcus pyogenes (GC 4563)', '8 µg/mL'),
  ('CC(c1ccccc1)C1NC(=O)CNC(=O)C(CO)NC(=O)C(C(O)C2CNC(=N)N2C2OC(CO)C(O)C(O)C2O)NC(=O)C(C(O)C2CNC(=N)N2)NC(=O)C(Cc2ccc3oc(=O)[nH]c3c2)NC1=O (stereo not drawn)', 'MIC Streptococcus pyogenes (GC 4563)', '32 µg/mL'),
  ('CC(C1CCCCC1)C1NC(=O)CNC(=O)C(CO)NC(=O)C(C(O)C2CNC(=N)N2C2OC(CO)C(O)C(O)C2O)NC(=O)C(C(O)C2CNC(=N)N2)NC(=O)C(CC2CCC(OC3OC(CO)C(OC4OC(CO)C(O)C(O)C4O)C(O)C3O)CC2)NC1=O (stereo not drawn) [Example 53a]', 'MIC Streptococcus pyogenes (GC 4563)', '64 µg/mL'),
  ('CC(c1ccccc1)C1NC(=O)CNC(=O)C(CO)NC(=O)C(CC2CNC(=N)N2C2OC(CO)C(O)C(O)C2O)NC(=O)C(CC2CNC(=N)N2)NC(=O)C(Cc2ccc(O)c([N+](=O)[O-])c2)NC1=O (stereo not drawn) [Example 10] (cyclo(G[ξPhe(βξ-Me)][Tyr(3-NO2)][X7][X6]S); configuration not given here)', 'MIC Streptococcus pyogenes (GC 4563)', '>64 µg/mL'),
  ('CC(c1ccccc1)C1NC(=O)CNC(=O)C(CO)NC(=O)C(C(O)C2CNC(=N)N2C2OC(CO)C(O)C(O)C2O)NC(=O)C(C(O)C2CNC(=N)N2)NC(=O)C(Cc2ccc3oc(-c4ccc(C(C)(C)C)cc4)nc3c2)NC1=O (stereo not drawn)', 'MIC Streptococcus pyogenes (GC 4563)', '8 µg/mL'),
  ('CC(c1ccccc1)C1NC(=O)CNC(=O)C(CO)NC(=O)C(C(O)C2CNC(=N)N2C2OC(CO)C(O)C(O)C2O)NC(=O)C(C(O)C2CNC(=N)N2)NC(=O)C(Cc2ccc3oc(-c4cccc(F)c4)nc3c2)NC1=O (stereo not drawn)', 'MIC Streptococcus pyogenes (GC 4563)', '4 µg/mL');

* * *

System: Streptococcus sp.
Method Summary: In vitro antibacterial evaluation: minimum inhibitory concentration (MIC), broth dilution method
Assay type: cell-based
Condition Description: broth dilution, inoculum 5×10^5 CFU/mL, 18 hours at 35° C.
Measured Attribute: MIC Streptococcus pneumoniae (GC 4565)

INSERT INTO results (compound, test_value) VALUES
  ('CC(c1ccc(Cl)cc1)C1NC(=O)CNC(=O)C(CO)NC(=O)C(C(O)C2CNC(=N)N2C2OC(CO)C(O)C(O)C2O)NC(=O)C(C(O)C2CNC(=N)N2)NC(=O)C(Cc2ccc(OC3OC(CO)C(OC4OC5COC(C6CCCCC6)OC5C(O)C4O)C(O)C3O)cc2)NC1=O (stereo not drawn)', '<0.06 µg/mL'),
  ('COc1ccc(Oc2cccc(C3OCC4OC(OC5C(CO)OC(Oc6ccc(CC7NC(=O)C(C(C)c8ccccc8)NC(=O)CNC(=O)C(CO)NC(=O)C(C(O)C8CNC(=N)N8C8OC(CO)C(O)C(O)C8O)NC(=O)C(C(O)C8CNC(=N)N8)NC7=O)cc6)C(O)C5O)C(O)C(O)C4O3)c2)cc1 (stereo not drawn)', '<0.06 µg/mL'),
  ('CC(c1ccccc1)C1NC(=O)CNC(=O)C(CO)NC(=O)C(C(O)C2CNC(=N)N2C2OC(CO)C(O)C(O)C2O)NC(=O)C(C(O)C2CNC(=N)N2)NC(=O)C(Cc2ccc(OC3OC(CO)C(OC4OC5COC(c6ccc(-c7ccc(Cl)cc7)cc6)OC5C(O)C4O)C(O)C3O)cc2)NC1=O (stereo not drawn)', '<0.06 µg/mL');

* * *

Test system: Streptococcus sp.
Method Summary: In vitro antibacterial evaluation: minimum inhibitory concentration (MIC), broth dilution method
Format: cell-based
Condition Description: broth dilution, 18 hours at 35° C.
Measured Attribute: MIC Streptococcus pneumoniae (GC 1894) (µg/mL)

INSERT INTO results (compound, measurement_units, test_value) VALUES
  ('CC(c1ccccc1)C1NC(=O)CNC(=O)C(CO)NC(=O)C(C(O)C2CNC(=N)N2C2OC(CO)C(O)C(O)C2O)NC(=O)C(C(O)C2CNC(=N)N2)NC(=O)C(Cc2ccc(O)c(NC(=O)c3ccccc3)c2)NC1=O (stereo not drawn)', 'µg/mL', 64),
  ('CC(c1ccccc1)C1NC(=O)CNC(=O)C(CO)NC(=O)C(C(O)C2CNC(=N)N2C2OC(CO)C(O)C(O)C2O)NC(=O)C(C(O)C2CNC(=N)N2)NC(=O)C(Cc2ccc3oc(-c4ccc(Br)cc4)nc3c2)NC1=O (stereo not drawn)', 'µg/mL', 32),
  ('CCCCCCC(=O)Nc1cc(CC2NC(=O)C(C(C)c3ccccc3)NC(=O)CNC(=O)C(CO)NC(=O)C(C(O)C3CNC(=N)N3C3OC(CO)C(O)C(O)C3O)NC(=O)C(C(O)C3CNC(=N)N3)NC2=O)ccc1O (stereo not drawn)', 'µg/mL', 64);

* * *

System: Enterococcus sp.
Method Summary: In vitro antibacterial evaluation: minimum inhibitory concentration (MIC), broth dilution method
Assay type: cell-based
Condition Description: strain GC 2691
In this section, each of the molecules is paired with its reported MIC Enterococcus faecalis (GC 2691).
Measured Attribute: MIC Enterococcus faecalis (GC 2691) (µg/mL)

INSERT INTO results (molecule, measurement_units, limit_sign, test_value) VALUES
  ('CC(c1ccccc1)C1NC(=O)CNC(=O)C(CO)NC(=O)C(C(O)C2CNC(=N)N2C2OC(CO)C(O)C(O)C2O)NC(=O)C(C(O)C2CNC(=N)N2)NC(=O)C(Cc2ccc(OC3OC(CO)C(OC4OC5COC(c6ccc7ccccc7c6)OC5C(O)C4O)C(O)C3O)cc2)NC1=O (centres unmarked)', 'µg/mL', '=', 1),
  ('COc1cc(OC)cc(C2OC3C(OC4C(CO)OC(Oc5ccc(CC6NC(=O)C(C(C)c7ccccc7)NC(=O)CNC(=O)C(CO)NC(=O)C(C(O)C7CNC(=N)N7C7OC(CO)C(O)C(O)C7O)NC(=O)C(C(O)C7CNC(=N)N7)NC6=O)cc5)C(O)C4O)OC(CO)C(O)C3O2)c1 (centres unmarked) [Example 150a]', 'µg/mL', '>', 64);

These measurements were taken from patent US8247211B2.
